For each record, write down the corresponding IC50.
- Tested system: UniProt P10415
- Sequence (P10415 whole entry): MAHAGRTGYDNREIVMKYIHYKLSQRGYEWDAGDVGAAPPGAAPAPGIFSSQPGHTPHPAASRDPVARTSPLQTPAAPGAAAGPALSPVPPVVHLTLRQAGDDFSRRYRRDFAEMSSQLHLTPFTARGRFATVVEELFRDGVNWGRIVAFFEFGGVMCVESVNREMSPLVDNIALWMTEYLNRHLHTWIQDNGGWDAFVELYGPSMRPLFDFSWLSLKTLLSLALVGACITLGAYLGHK
- Assay procedure: Competitive fluorescence polarization assay, displacement of Flu-BakBH3 peptide from Bcl-2
- Format: binding
- Experimental setup: inhibition of Bak BH3 peptide binding to Bcl-2, FP; read-out: IC50 Bcl-2/Bak
// units = µM; emit number, no label

Entry Cc1c(C)c2c(c(C)c1OCc1ccccc1)CCC(C)(COc1ccc(/C=C3\SC(=O)NC3=O)cc1)O2 (stereo not shown) [TG-12] needs its IC50 filled in; supply it.
18

Determine its reported IC50: CC(C)=CCOc1c(C)c(C)c2c(c1C)CCC(C)(COc1ccc(/C=C3\SC(=O)NC3=O)cc1-c1ccc(F)cc1)O2 (stereo not shown) [TG-32]
6.6

Provide IC50 value for the following molecule: CC(C)=CCOc1c(C)c(C)c2c(c1C)CCC(C)(COc1ccc(/C=C3\SC(=O)NC3=O)cc1C)O2 (stereo not shown) [TG-17]
3.1

For Cc1c(C)c2c(c(C)c1O)CCC(C)(COc1ccc(CC3SC(=O)NC3=O)cc1)O2 (stereo not shown) [TG, troglitazone, reference compound] , write its IC50.
22

Fill in IC50 for record O=C1NC(=O)/C(=C/c2ccc(OCC3CCc4ccccc4C3)cc2)S1 (stereo not shown) [TG-15]
18

Given the molecule CC(C)=CCOc1c(C)c(C)c2c(c1C)CCC(C)(COc1ccc(/C=C3\SC(=O)NC3=O)cc1-c1ccc(C(F)(F)F)cc1)O2 (stereo not shown) [TG-31] , write its reported IC50.
4.7

Using known records, supply IC50 for CC(C)=CCOc1c(C)c(C)c2c(c1C)CCC(C)(COc1c(Br)cc(/C=C3\SC(=O)NC3=O)cc1Br)O2 (stereo not shown) [TG-34]
2.8
